- ASSAY_INFO: xn = mol fraction of the nth substance listed, in the solute-free solvent
- RUN_CONDITIONS: 303.15 K; x2 = 0.2
Provide the recorded solubility (g/100 g solution) for the entries that follow.
Answers are plain numbers.

Field: example entries. Status: answers known.
CC(C)C(=O)Nc1ccc([N+](=O)[O-])c(C(F)(F)F)c1 + CC(C)=O + CC(C)O
48
CC(C)C(=O)Nc1ccc([N+](=O)[O-])c(C(F)(F)F)c1 + CCOC(C)=O + CC(C)O
44.4
Cl.NC1CCSC1=O (centres undefined) + CO + CC#N
0.539

We now examine a further compound.
## Input Reported solubility (g/100 g solution), compound CC(C)C(=O)Nc1ccc([N+](=O)[O-])c(C(F)(F)F)c1 + C1CCOC1 + CC(C)O : ____
## Output 46.1
